experiment: soluble on expression in E. coli; label from the status in PepcDB or PDB records
property: soluble on expression in E. coli

macromoleculesequence=GSMNDRDFMRYSRQILLDDIALDGQQKLLDSQVLIIGLGGLGTPAALYLAGAGVGTLVLADDDDVHLSNLQRQILFTTEDIDRPKSQVSQQRLTQLNPDIQLTALQQRLTGEALKDAVARADVVLDCTDNMATRQEINAACVALNTPLITASAVGFGGQLMVLTPPWEQGCYRCLWPDNQEPERNCRTAGVVGPVVGVMGTLQALEAIKLLSGIETPAGELRLFDGKSSQWRSLALRRASGCPVCGGSNADPV property="soluble on expression in E. coli" valueobserved=soluble
macromoleculesequence=MSLTMREVAKAAGVSIKTVSNVVNDYEFVSQATRDKVNKAIAELGYTVNVSARNLRRGQTGIIGLAIPDLQMPYFAQLSSLVIEEAKKVGLRVIVEPTQYSRDGELEALHGSQQMMIDGLIYSPLELGQDDVEQLKVDYPLVLVGERIFTDQVDHIATENVEGAKRATQYLLTTGCRRVAVVGVHPGEKVGSAALRYQGYLEALEEAGVEFDDRLVVESGMWHRSDGVRAMNALLDSGVEVDGVVALNDMLASGVMHAIQMHGLHIPDDISVVGFDNSDDSQYLSPALTSIAPGLEAVARLSVKVLKERIDGRDPNADRPGEKVFRKVASSLVVRQSTEGHHHHHH property="soluble on expression in E. coli" valueobserved=soluble

====

experiment: soluble on expression in E. coli; label from the status in PepcDB or PDB records
property: soluble on expression in E. coli

macromoleculesequence=MGSDKIHHHHHHMEKTMDRIYKIGGHCFALPDERLMEAVDGISGFKPFVWQPDLVSAKDVYEGAWLPDFTVWEGNGWGFPAFQRKSYGFGYEDVTGTFGVSGDSFLLELAPQGEPSLYLRTMGGTGRGICLYGNYSPRLLRFALWMGYGLMTVRKDTVALHGSCIVYKGKAVLFLGESGTGKSTHTRLWRENIAGSKLLNDDSPIVRYEEGGVWVYGSPWSGKTPCYKAERYPLAGCVRLSQAPYNKIRRLNTLQAYAALHPSAPPAFAYEEELYCGVCSLLEKMVSSIPVYHLECLPDAEAVKLVCRTLYGDGYEADSE property="soluble on expression in E. coli" valueobserved="not soluble"
macromoleculesequence=MRCVVYSIAKSSPLELVKIYQKQCRQFDCELELVDLFPKNTANAQKVSKKLAQKSYSLAFEPYLNPKAKNIALHPKAQRGDSFAFSKMLENHLNINFFIAGAYGFEENFLKDCQAWSLSEMTFSHEVAKIVLCEQIYRALSIIFKHPYHKLEHHHHHH property="soluble on expression in E. coli" valueobserved="not soluble"
macromoleculesequence=RALEDEDMRKVFSRLSKSSTIPSDLRRTKELFILMFLLRGLPFVDLAYLRKSDLRGNVITYRRRKTGRSLSVTLTPESMLLLEKHISRDLSSPYLFPILHSIEGSQEAYREYQLALRSFNQHLELLGQWLGLESKLSSYTARHTWATTAYYCEIHPGIISEAMGHSSITVTETYLKPFRNRKIDEAN property="soluble on expression in E. coli" valueobserved="not soluble"
macromoleculesequence=AIAEALWTNKIEDPLSLMSFTVPPLRLLSAAMWQVTERRQVKHYGMLEEFVSLVTETIPELLNQHQRAQLILGLRARHLLELCRGKHQGSLKEIQPHLKRLCRPRVNKEFADEDMEESEACFLDLVRTLISNPKEKEHYFQNIFPEEYGPKFDKNLHALMEDFLLKLDRMVSVPDLSETVSWLRTCPSLLDDCIDSVSVPKDMKSLLEHHTAKGNLQDSEGNNCTFSSQSLPPLVQVVISSDHTESGEPSDLNGQDNDDEQASKTSSDGWTIKKIKLKTETEEEDNDQNWPITEAKSTGTRDGYDDGCLGEEPNQTQS property="soluble on expression in E. coli" valueobserved=soluble
macromoleculesequence=MILKPIGVVKSPFKTQNDAPRQGRFSDAVSEIAIFDEYADGLHKIENLRHIIVLYWMDKASRDKLRVVPPGETEERGVFTTRSPSRPNPIGLCVVEILEVERNRLKVRWLDALDGSPVIDIKKYSPEIDCVNQLEGQQPLEHHHHHH property="soluble on expression in E. coli" valueobserved=soluble

So, "WTGEDSAEPNSDSAEWIRDMYAKVTEIWQEVMQRRDDDGTLHAACQVQPSATLDAAQPRVTGVVLFRQLAPRAKLDAFFALEGFPTEPNSSSRAIHVHQFGDLSQGCESTGPHYNPLAVPHPQHPGDFGNFAVRDGSLWRYRAGLAASLAGPHSIVGRAVVVHAGEDDLGRGGNQASVENGNAGRRLACCVVGVCGPGLWERQAREHSERKKRRRESECKAA" ? Its soluble on expression in E. coli was soluble
